// data source = patent US10450318B2

Recorded IC50 values for a group of molecules are listed next.
Target or test system: CXCR4 receptors (Homo sapiens)
Construct: expressing endogenous CXCR4 receptors; endogenous in cells
Sequence (P61073 whole entry): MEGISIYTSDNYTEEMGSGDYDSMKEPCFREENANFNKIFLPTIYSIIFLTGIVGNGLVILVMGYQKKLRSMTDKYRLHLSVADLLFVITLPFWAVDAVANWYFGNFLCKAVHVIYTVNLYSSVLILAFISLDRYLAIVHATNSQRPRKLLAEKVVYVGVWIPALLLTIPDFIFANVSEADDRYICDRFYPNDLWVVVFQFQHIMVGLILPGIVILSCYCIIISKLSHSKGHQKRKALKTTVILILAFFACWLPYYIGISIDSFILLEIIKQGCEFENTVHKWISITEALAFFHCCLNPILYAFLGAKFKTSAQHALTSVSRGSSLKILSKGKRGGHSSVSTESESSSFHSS
Experiment description: CXCR4-CEM calcium flux assay, antagonist mode (inhibition of SDF-1α-induced calcium flux)
Recorded conditions: inhibition of calcium flux induced by 4 nM SDF-1α in CCRF-CEM cells
Report as a plain number; the unit nM is understood.

The cases that follow already have their IC50 on record.
INSERT INTO measurements (molecule, target_or_test_system, result) VALUES
  ('C[C@@H]1CN(c2nccc3nc(CN(C)[C@H]4CCCc5cccnc54)cn23)C[C@H](C)N1 [Example 73]', 'CXCR4 receptors (Homo sapiens)', 120),
  ('CN(Cc1cn2c(N3CCN(Cc4cncn4C)CC3)nccc2n1)[C@H]1CCCc2cccnc21 [Example 27]', 'CXCR4 receptors (Homo sapiens)', 75);

Challenge: Which IC50 is reported for this molecule? CN(Cc1cn2c(N3CCN(Cc4cccnc4)CC3)nccc2n1)[C@H]1CCCc2cccnc21 [Example 28]
Response given: 11

Challenge: Same read-out for CN(Cc1cn2c(N3CCN(Cc4ccccc4)CC3)nccc2n1)[C@H]1CCCc2cccnc21 [Example 37] ?
Response given: 23

----------
Recorded IC50 values for a group of molecules are listed next.
Target or test system: CXCR4 receptors (Homo sapiens)
Construct: expressing endogenous CXCR4 receptors; endogenous in cells
Experiment description: CXCR4-CEM calcium flux assay, antagonist mode (inhibition of SDF-1α-induced calcium flux)
Recorded conditions: inhibition of calcium flux induced by 4 nM SDF-1α in CCRF-CEM cells
Method: Exemplary compounds of the invention were tested for their ability to induce or inhibit calcium flux in CCRF-CEM cells. […] CXCR4-CEM Calcium Flux Assays. […] The cells were then equilibrated to room temperature for 30 minutes before assay. […] Activity of the compounds to induce calcium flux was monitored by FDSS in the “agonist mode” for 90 sec. […] Inhibition of SDF-1α-induced calcium flux was monitored by FDSS6000 for 90 sec. […] After correcting for background, EC50 values were determined. […]
Report as a plain number; the unit nM is understood.

The cases that follow already have their IC50 on record.
INSERT INTO assay_data (molecule, target_or_test_system, readout_kind, result) VALUES
  ('CN(C)c1ccc(CN2CCN(c3nccc4nc(CN(C)[C@H]5CCCc6cccnc65)cn34)CC2)cc1 [Example 60]', 'CXCR4 receptors (Homo sapiens)', 'IC50', 7.6),
  ('CN(Cc1nc2ccnc(N3CCNCC3)n2c1CO)[C@H]1CCCc2cccnc21 [Example 6]', 'CXCR4 receptors (Homo sapiens)', 'IC50', 3.8),
  ('CN(Cc1nc2ccnc(N3CCNCC3)n2c1CO)[C@H]1CCOc2cccnc21 [Example 71]', 'CXCR4 receptors (Homo sapiens)', 'IC50', 2.7),
  ('CN1CCN(c2nccc3nc(CN(C)[C@H]4CCCc5cccnc54)c(CO)n23)CC1 [Example 7]', 'CXCR4 receptors (Homo sapiens)', 'IC50', 2.4),
  ('CN(Cc1cn2c(N3CCN(Cc4cccc(Cl)c4)CC3)nccc2n1)[C@H]1CCCc2cccnc21 [Example 25]', 'CXCR4 receptors (Homo sapiens)', 'IC50', 12),
  ('CN(Cc1cn2c(N3CCN[C@@H](CO)C3)nccc2n1)[C@H]1CCCc2cccnc21 [Example 85]', 'CXCR4 receptors (Homo sapiens)', 'IC50', 1.7);

Challenge: Which IC50 is reported for this molecule? CN(Cc1cn2c(N3CCN(S(=O)(=O)c4cccs4)CC3)nccc2n1)[C@H]1CCCc2cccnc21 [Example 62]
Response given: 19600

Challenge: Same read-out for CN(Cc1cn2c(N3CCn4ccnc4C3)nccc2n1)[C@H]1CCCc2cccnc21 [Example 83] ?
Response given: 150

Challenge: Same read-out for CSc1nccc2nc(CN(C)[C@H]3CCCc4cccnc43)cn12 [Example 8] ?
Response given: 89

Challenge: Same read-out for CN(Cc1cn2c(N3CC4CCCNC4C3)nccc2n1)[C@H]1CCCc2cccnc21 (single isomer, unassigned) [Example 96] ?
Response given: 220

Challenge: Same read-out for CN1CC2CN(c3nccc4nc(CN(C)[C@H]5CCCc6cccnc65)cn34)CC2C1 (stereo partly shown) [Example 81] ?
Response given: 32

Challenge: Same read-out for CN(Cc1cn2c(N3CCC(N)C3)nccc2n1)[C@H]1CCCc2cccnc21 (stereo partly shown) [Example 74] ?
Response given: 79

Challenge: Same read-out for CN(Cc1cn2c(N3CCN(CC4CC4)CC3)nccc2n1)[C@H]1CCCc2cccnc21 [Example 21] ?
Response given: 17

Challenge: Same read-out for CN(Cc1cn2c(N3CCN(Cc4nccs4)CC3)nccc2n1)[C@H]1CCCc2cccnc21 [Example 67] ?
Response given: 42

Challenge: Same read-out for CN(Cc1cn2c(N3CCN(Cc4ccc(C(F)(F)F)cc4)CC3)nccc2n1)[C@H]1CCCc2cccnc21 [Example 64] ?
Response given: 11

Challenge: Same read-out for CN(Cc1cn2c(N3CCN(C4CCCCC4)CC3)nccc2n1)[C@H]1CCCc2cccnc21 [Example 23] ?
Response given: 770
